pIC50: −log10 of the molar value.
Compiled record: pIC50 values for Amine oxidase [copper-containing] 3 (Homo sapiens) across several sources.

## Input Give measured pIC50 for CC(C)(O)NC(=O)[C@H]1CCN(S(=O)(=O)c2ccc(OC/C(=C/F)CN)nc2)C1 (Amine oxidase [copper-containing] 3 (Homo sapiens)).
## Output 7.14

## Input # assay system Amine oxidase [copper-containing] 3 (Homo sapiens): give pIC50 of CC1(CS(=O)(=O)c2ccc(OC/C(=C/F)CN)cc2)CCOCC1
## Output > 7.70

## Input Print Amine oxidase [copper-containing] 3 (Homo sapiens) pIC50 for CC1CCN(C23CCC(CS(=O)(=O)c4ccc(OC/C(=C/F)CN)cc4)(CC2)CC3)C1=O (stereo not drawn) .
## Output > 7.70

## Input Write down the reported pIC50 (system: Amine oxidase [copper-containing] 3 (Homo sapiens)) of CC1(CS(=O)(=O)c2ccc(OC/C(=C/F)CN)cc2F)CCOCC1
## Output > 7.70

## Input Please report the measured pIC50 for NC/C(=C\F)COc1ccc(S(=O)(=O)C[C@H]2CCCO2)cc1 tested on Amine oxidase [copper-containing] 3 (Homo sapiens).
## Output > 7.70

## Input Fill in pIC50 for CC(C)C(=O)N(C)CC(C)(C)CS(=O)(=O)c1ccc(OC/C(=C/F)CN)cc1 tested with Amine oxidase [copper-containing] 3 (Homo sapiens).
## Output > 7.70

## Input State, for Amine oxidase [copper-containing] 3 (Homo sapiens), measured pIC50 of the molecule listed here: N#CC12CCC(CS(=O)(=O)c3ccc(OC/C(=C/F)CN)cc3)(CC1)CC2
## Output > 7.70

## Input Using Amine oxidase [copper-containing] 3 (Homo sapiens) as the test system, report measured pIC50 of CC(C)N1CCc2cc(OC/C(=C/F)CN)ccc2C1=O .
## Output 7.23

## Input Send back Amine oxidase [copper-containing] 3 (Homo sapiens) pIC50 of NC/C(=C\F)COc1ccc(S(=O)(=O)CC23CCC(C4(O)CC4)(CC2)CC3)cc1 only.
## Output > 7.70

## Input Lab note: Amine oxidase [copper-containing] 3 (Homo sapiens) assay, enter pIC50 for NC/C(=C/F)COc1ccc(S(=O)(=O)CC23CCC(NC(=O)C4CC4)(CC2)CC3)cc1 here
## Output > 7.70

## Input Write down the reported pIC50 (system: Amine oxidase [copper-containing] 3 (Homo sapiens)) of NC/C(=C\F)COc1ccc(S(=O)(=O)C[C@H]2CC[C@@H](O)CC2)cc1
## Output > 7.70

## Input Provide pIC50, tested on Amine oxidase [copper-containing] 3 (Homo sapiens), for CO[C@H]1CC[C@H](CS(=O)(=O)c2ccc(OC/C(=C/F)CN)cc2)CC1 .
## Output > 7.70

## Input Enter recorded pIC50 with Amine oxidase [copper-containing] 3 (Homo sapiens) for NC/C(=C\F)COc1ccc(S(=O)(=O)CC23CCC(NC(=O)C4CC4)(CC2)CC3)cc1 here.
## Output > 7.70
